Origin of measurements: paper PMC4121237

molecular target: NEP G399V (Homo sapiens, UniProt P08473, G400V); assay: biochemical
Metric: pIC50
# reply with the number alone; pIC50 is -log10 of concentration in mol/L

For NEP G399V (Homo sapiens, UniProt P08473, G400V), provide pIC50 of CC(C)C[C@H](NP(=O)(O)O[C@@H]1O[C@@H](C)[C@H](O)[C@@H](O)[C@H]1O)C(=O)N[C@@H](Cc1c[nH]c2ccccc12)C(=O)O please. 6.21

###

biological target: NEP G714K (Homo sapiens, UniProt P08473, G715K); assay: biochemical
Sequence (P08473 53-750 G715K): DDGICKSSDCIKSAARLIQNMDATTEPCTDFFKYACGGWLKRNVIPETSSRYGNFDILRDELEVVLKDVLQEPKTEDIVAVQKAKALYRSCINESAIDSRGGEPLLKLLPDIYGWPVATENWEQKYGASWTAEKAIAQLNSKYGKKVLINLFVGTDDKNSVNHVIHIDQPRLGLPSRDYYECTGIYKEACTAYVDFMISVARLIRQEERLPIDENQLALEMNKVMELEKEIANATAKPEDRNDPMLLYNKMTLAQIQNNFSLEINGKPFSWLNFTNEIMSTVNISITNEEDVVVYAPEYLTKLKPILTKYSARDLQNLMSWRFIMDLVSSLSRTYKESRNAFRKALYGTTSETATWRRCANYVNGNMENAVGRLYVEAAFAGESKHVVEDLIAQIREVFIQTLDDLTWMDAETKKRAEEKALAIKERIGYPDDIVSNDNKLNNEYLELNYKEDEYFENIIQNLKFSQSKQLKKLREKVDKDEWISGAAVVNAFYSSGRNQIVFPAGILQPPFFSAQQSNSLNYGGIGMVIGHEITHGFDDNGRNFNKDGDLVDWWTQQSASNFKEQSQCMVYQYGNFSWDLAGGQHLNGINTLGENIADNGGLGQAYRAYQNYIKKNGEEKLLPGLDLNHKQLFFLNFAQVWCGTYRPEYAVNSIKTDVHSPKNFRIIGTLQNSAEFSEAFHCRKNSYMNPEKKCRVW
Metric: IC50

Returns the measured IC50 for the input molecule. Input: CC(C)C[C@H](NP(=O)(O)O[C@@H]1O[C@@H](C)[C@H](O)[C@@H](O)[C@H]1O)C(=O)N[C@@H](Cc1c[nH]c2ccccc12)C(=O)O 100 nM
